test system: Plasmodium falciparum NF54/iGP1_RE9H ulg8 stage V gametocytes; test: gametocyte viability (luciferase signal relative to DMSO control) (% of DMSO control); higher = less gametocytocidal activity, active = 50 or less; conditions: concentration: 10 µM; exposure time: 72 h
measurement-label: gametocyte viability
No unit in the answer, please; the number alone is enough.

// worked examples, gametocyte viability included
1) COc1ccc2c3n(c(=NC(=O)c4cccnc4)nc2c1OC)CCN3: 101
2) COc1cc2nccc(Oc3ccc(NC(=O)C4(C(=O)Nc5ccc(F)cc5)CC4)cc3)c2cc1OC [XL-184 free base (Cabozantinib)]: 83.1
3) N#CC(=C(/N)Sc1ccccc1N)/C(C#N)=C(\N)Sc1ccccc1N: 95.9

Query :: Which gametocyte viability is reported for this compound? `CCCS(=O)(=O)Nc1ccc(F)c(C(=O)c2c[nH]c3ncc(Cl)cc23)c1F`
Result :: 107

Query :: Which gametocyte viability is reported for this compound? CC1CNCCN1S(=O)(=O)c1cccc2cnccc12 (centres undefined)
Result :: 97.9

Query :: Which gametocyte viability is reported for this compound? `CC(C)(C)c1cc(NC(=O)Nc2ccc(-c3cn4c(n3)sc3cc(OCCN5CCOCC5)ccc34)cc2)no1`
Result :: 85.9

Query :: Which gametocyte viability is reported for this compound? `O=S(=O)(c1cccc2c(Cl)cccc12)N1CCCNCC1`
Result :: 90

Query :: Which gametocyte viability is reported for this compound? `Cn1cc(-c2ccc3nnc(C(F)(F)c4ccc5ncccc5c4)n3n2)cn1`
Result :: 118

---

system: Plasmodium falciparum NF54/iGP1_RE9H ulg8 stage V gametocytes; assay: gametocyte viability (luciferase signal relative to DMSO control) (% of DMSO control); higher = less gametocytocidal activity, active = 50 or less; conditions: concentration: 10 µM; exposure time: 72 h
Where a name gives a salt, the structure may show the parent alone.
gametocyte viability values for the compounds below.
No unit in the answer, please; the number alone is enough.

// worked examples, gametocyte viability included
1) C/C(=N\NC(=O)c1cccc(S(=O)(=O)N2CCOCC2)c1)c1cc(Cl)ccc1O: 85.8
2) CCN(c1cc(-c2ccc(CN3CCOCC3)cc2)cc(C(=O)NCc2c(C)cc(C)[nH]c2=O)c1C)C1CCOCC1: 93
3) Cc1ccc(-n2sc3ccccc3c2=O)cc1: 59.8
4) CN(C)c1ccc(C(=O)NCCCCCC(=O)NO)cc1: 52
5) CN(C)Cc1ccc(S(=O)(=O)n2ccc(/C=C/C(=O)NO)c2)cc1 [Resminostat (hydrochloride)]: 77.8

Query :: # value lookup — system Plasmodium falciparum NF54/iGP1_RE9H ulg8 stage V gametocytes, readout gametocyte viability, item COc1cc(O)c2c(c1)oc(=O)c1c3cc(O)c(O)cc3oc21 [Wedelolactone]
Result :: 81.5

Query :: # value lookup — system Plasmodium falciparum NF54/iGP1_RE9H ulg8 stage V gametocytes, readout gametocyte viability, item `O=C(c1cncc(Br)c1)N1CCC(N2CCCC2)CC1`
Result :: 91.4

Query :: # value lookup — system Plasmodium falciparum NF54/iGP1_RE9H ulg8 stage V gametocytes, readout gametocyte viability, item Nc1ccn([C@@H]2O[C@H](CO)[C@@H](O)C2(F)F)c(=O)n1 [Gemcitabine]
Result :: 85.8

Query :: # value lookup — system Plasmodium falciparum NF54/iGP1_RE9H ulg8 stage V gametocytes, readout gametocyte viability, item `Nc1ccccc1NC(=O)c1ccc(CNC(=O)OCc2cccnc2)cc1`
Result :: 88

Query :: # value lookup — system Plasmodium falciparum NF54/iGP1_RE9H ulg8 stage V gametocytes, readout gametocyte viability, item CC(C)Oc1ccc(-c2c[nH]cc2CN(C)CCN)cc1 [MS023 (hydrochloride)]
Result :: 30.3

---

system: Plasmodium falciparum NF54/iGP1_RE9H ulg8 stage V gametocytes; assay: gametocyte viability (luciferase signal relative to DMSO control) (% of DMSO control); higher = less gametocytocidal activity, active = 50 or less; conditions: concentration: 10 µM; exposure time: 72 h
Structures can show the parent of a compound that is named as a salt.
gametocyte viability values for the compounds below.
No unit in the answer, please; the number alone is enough.

// worked examples, gametocyte viability included
1. N[C@H]1C[C@@H]1c1ccc(-c2cccc(O)c2)cc1: 79.4
2. CCOC(=O)Nc1cc(-c2ccc(C)c(NS(C)(=O)=O)c2)nn2c(C)nnc12: 83.1
3. CCOC(=O)NNc1nncc2ccccc12 [Todralazine (hydrochloride)]: 89.1

Query :: Which gametocyte viability is reported for this compound? `COc1cc2nc(N3CCCC3)nc(NCCCCCN3CCCC3)c2cc1OC`
Result :: 18.9

Query :: Which gametocyte viability is reported for this compound? CCCc1cc2c(N3CCN(C4=NCC(C)(C)S4)CC3)ncnc2s1 [MI-2 (hydrochloride)]
Result :: 63.3

---

system: Plasmodium falciparum NF54/iGP1_RE9H ulg8 stage V gametocytes; test: gametocyte viability (luciferase signal relative to DMSO control) (% of DMSO control); higher = less gametocytocidal activity, active = 50 or less; details: concentration: 1 µM; exposure time: 72 h
measurement-label: gametocyte viability
No unit in the answer, please; the number alone is enough.

Query :: Which gametocyte viability is reported for this compound? `CC(=O)Nc1cccc(-n2c(=O)n(C3CC3)c(=O)c3c(Nc4ccc(I)cc4F)n(C)c(=O)c(C)c32)c1`
Result :: 102

Query :: Which gametocyte viability is reported for this compound? CC(C)n1cnc2c(NCc3ccccc3)nc(NCCO)nc21 [N9-isopropyl-olomoucine]
Result :: 92.7

---

gametocyte viability values for the compounds below.
tested on: Plasmodium falciparum NF54/iGP1_RE9H ulg8 stage V gametocytes; test: gametocyte viability (luciferase signal relative to DMSO control) (% of DMSO control); higher = less gametocytocidal activity, active = 50 or less; conditions: concentration: 1 µM; exposure time: 72 h
No unit in the answer, please; the number alone is enough.

1. COc1cc2c(Oc3ccc4[nH]c(C)cc4c3F)ncnc2cc1OCCCN1CCCC1 [Cediranib (AZD2171)]: 88.6
2. O=C1NC(=O)/C(=C/c2ccc(-c3ccc(F)cc3O)o2)S1: 100
3. COc1cc2nccc(Oc3ccc(NC(=O)Nc4ccc(F)cc4F)c(F)c3)c2cc1OC: 94.9

Query :: Which gametocyte viability is reported for this compound? `Cn1cc(-c2ccc3nnc(C(F)(F)c4ccc5ncccc5c4)n3n2)cn1`
Result :: 98.2

Query :: Which gametocyte viability is reported for this compound? `O=C(Nc1ccc(OC(F)(F)F)cc1)c1sccc1NCc1ccnc2ccccc12`
Result :: 96.9

Query :: Which gametocyte viability is reported for this compound? `Cn1cnc(-c2cc3nccc(Oc4ccc(NC(=S)NC(=O)Cc5ccccc5)cc4F)c3s2)c1`
Result :: 90.2

Query :: Which gametocyte viability is reported for this compound? COc1cc2c(N3CCN(C(=O)Nc4ccc(OC(C)C)cc4)CC3)ncnc2cc1OCCCN1CCCCC1 [Tandutinib (MLN518)]
Result :: 98.8

Query :: Which gametocyte viability is reported for this compound? Nc1ncnc2c1c(-c1cccc(OCc3ccccc3)c1)cn2C1CC(CN2CCCC2)C1 (centres undefined)
Result :: 94.4

Query :: Which gametocyte viability is reported for this compound? `Cc1[nH]nc2ccc(-c3cncc(OC[C@@H](N)Cc4ccccc4)c3)cc12`
Result :: 101

---

gametocyte viability values for the compounds below.
system: Plasmodium falciparum NF54/iGP1_RE9H ulg8 stage V gametocytes; experiment: gametocyte viability (luciferase signal relative to DMSO control) (% of DMSO control); higher = less gametocytocidal activity, active = 50 or less; settings: concentration: 10 µM; exposure time: 72 h
No unit in the answer, please; the number alone is enough.

// worked examples, gametocyte viability included
1) CCc1cccc(CC)c1NC(=O)N1Cc2[nH]nc(NC(=O)c3ccc(N4CCN(C)CC4)cc3)c2C1: 68.7
2) Nc1nc(Nc2ccc(S(N)(=O)=O)cc2)nn1C(=O)c1c(F)cccc1F: 85.9
3) COc1cc2ncnc(Nc3cccc(Cl)c3)c2cc1OC: 104
4) Cc1cc(Nc2nc(N[C@@H](C)c3ccc(F)cc3)c(C#N)cc2F)n[nH]1: 99.6
5) CC[C@H](CO)Nc1nc(NCc2ccccc2)c2ncn(C(C)C)c2n1: 105

Lab note: next compound to report on.
Query :: Which gametocyte viability is reported for this compound? `CCCNC(=O)Nc1ccc(Oc2ncnc3cc(OC)c(OC)cc23)cc1Cl`
Result :: 104

---

gametocyte viability values for the molecules below.
tested on: Plasmodium falciparum NF54/iGP1_RE9H ulg8 stage V gametocytes; assay: gametocyte viability (luciferase signal relative to DMSO control) (% of DMSO control); higher = less gametocytocidal activity, active = 50 or less; settings: concentration: 10 µM; exposure time: 72 h
No unit in the answer, please; the number alone is enough.

1) O=C(Nc1cccc(Br)c1)c1cccc(S(=O)(=O)N2CCCCCC2)c1: 69.8
2) COc1ccccc1C(=O)Nc1cc2c(cc1N1CCNC[C@H]1C)n(C)c(=O)n2C: 93.7
3) COc1cc(Br)c(Nc2nc(-c3c(C)nc4ncccn34)cs2)c(Br)c1: 93.6
4) O=C(CCCCCCC(=O)Nc1ccc(I)cc1)NO [4-iodo-SAHA]: 67.2

Lab note: next molecule to report on.
Query :: Which gametocyte viability is reported for this molecule? `Nc1ccc(S(=O)(=O)NCCc2ccccc2)cc1`
Result :: 86.3

// data source = the supplement of paper PMC12297408
